Each recorded value in this set is attributed to patent US20250042994A1.

For each of the binders below, state its EC50.
SUBJECT_OF_TEST: T1, monkey CD19 on HEK293T-monkey CD19 cells (monkey)
T1 construct: whole, on cells
ASSAY_NAME: FACS on HEK293T-monkey CD19 cells
Write the numeric value and append its unit.

Task item: Entry F4.272.13 (antibody, human IgG1, V domains shown, human-murine chimeric antibody, human IgG1) VH: QVQLKESGPGLVAPSQSLSITCTVSGFSLTDYGVSWIRQPPGKGLEWLGVIWGSETTFYNSALKSRLSISKDNSKSQLFLQMNSLQADDTAIYYCAKHHYYGGSFSMDYWGQGTSVTVSS VL: DIQMTQTTSSLSASLGDRVTISCRASQDINNYLNWYQQKPDGTVKFLIYYTSRLHSGVPSRFSGSGSGTDYSLTISDLEQEDIATYFCQQGNTLPYTFGGGTKLEIK has what EC50?
Reply: 3.86 nM

Task item: Entry F3.5.1 (antibody, human IgG1, V domains shown, human-murine chimeric antibody, human IgG1) VH: QAQLQQSGPELVKPGASVKISCKASGYAFSGSWMNWVQQRPGKGLEWIGRIYPGDGDTYYNGKFKDKAILTADKSSSTAYMQLSSLTSEDSAVYFCAQLRYRYVMDYWGQGTSVTVSS VL: DIVLTQSPASLAVSLGQRATISCRASESVSIHGSHLMHWYQQKPGQPPRLLIYAASNLESGVPARFSGSGSETDFTLNIHPVEEEDAATYFCQQGIKDPYTFGGGTKLEIK has what EC50?
Reply: 6.11 nM

Task item: Entry F3.126.15 (antibody, human IgG1, V domains shown, human-murine chimeric antibody, human IgG1) VH: QVQLQQPGAELVMPGASVKLSCKASGYTFTSYWMHWVKQRPGQGLEWIGEIDPSDSYTTYNQNFKGKATLTVDISTSTAYIQLSNLTSEDSAVYYCARLTGNYIHYWGQGTTLTVSS VL: DIVMTQSHKFMSTSVGDRVSITCKASQDVSPAVAWYQQRPGQCPKLLIFSSSYRSTGVPDRFTGSGSGTDFTFTISSVQAEDLAVYYCQQHYSLPLTFGAGTKLELK has what EC50?
Reply: 5.57 nM
